Target: Voltage-dependent N-type calcium channel subunit alpha-1B (Homo sapiens, UniProt Q00975)
Sequence (Q00975 whole entry): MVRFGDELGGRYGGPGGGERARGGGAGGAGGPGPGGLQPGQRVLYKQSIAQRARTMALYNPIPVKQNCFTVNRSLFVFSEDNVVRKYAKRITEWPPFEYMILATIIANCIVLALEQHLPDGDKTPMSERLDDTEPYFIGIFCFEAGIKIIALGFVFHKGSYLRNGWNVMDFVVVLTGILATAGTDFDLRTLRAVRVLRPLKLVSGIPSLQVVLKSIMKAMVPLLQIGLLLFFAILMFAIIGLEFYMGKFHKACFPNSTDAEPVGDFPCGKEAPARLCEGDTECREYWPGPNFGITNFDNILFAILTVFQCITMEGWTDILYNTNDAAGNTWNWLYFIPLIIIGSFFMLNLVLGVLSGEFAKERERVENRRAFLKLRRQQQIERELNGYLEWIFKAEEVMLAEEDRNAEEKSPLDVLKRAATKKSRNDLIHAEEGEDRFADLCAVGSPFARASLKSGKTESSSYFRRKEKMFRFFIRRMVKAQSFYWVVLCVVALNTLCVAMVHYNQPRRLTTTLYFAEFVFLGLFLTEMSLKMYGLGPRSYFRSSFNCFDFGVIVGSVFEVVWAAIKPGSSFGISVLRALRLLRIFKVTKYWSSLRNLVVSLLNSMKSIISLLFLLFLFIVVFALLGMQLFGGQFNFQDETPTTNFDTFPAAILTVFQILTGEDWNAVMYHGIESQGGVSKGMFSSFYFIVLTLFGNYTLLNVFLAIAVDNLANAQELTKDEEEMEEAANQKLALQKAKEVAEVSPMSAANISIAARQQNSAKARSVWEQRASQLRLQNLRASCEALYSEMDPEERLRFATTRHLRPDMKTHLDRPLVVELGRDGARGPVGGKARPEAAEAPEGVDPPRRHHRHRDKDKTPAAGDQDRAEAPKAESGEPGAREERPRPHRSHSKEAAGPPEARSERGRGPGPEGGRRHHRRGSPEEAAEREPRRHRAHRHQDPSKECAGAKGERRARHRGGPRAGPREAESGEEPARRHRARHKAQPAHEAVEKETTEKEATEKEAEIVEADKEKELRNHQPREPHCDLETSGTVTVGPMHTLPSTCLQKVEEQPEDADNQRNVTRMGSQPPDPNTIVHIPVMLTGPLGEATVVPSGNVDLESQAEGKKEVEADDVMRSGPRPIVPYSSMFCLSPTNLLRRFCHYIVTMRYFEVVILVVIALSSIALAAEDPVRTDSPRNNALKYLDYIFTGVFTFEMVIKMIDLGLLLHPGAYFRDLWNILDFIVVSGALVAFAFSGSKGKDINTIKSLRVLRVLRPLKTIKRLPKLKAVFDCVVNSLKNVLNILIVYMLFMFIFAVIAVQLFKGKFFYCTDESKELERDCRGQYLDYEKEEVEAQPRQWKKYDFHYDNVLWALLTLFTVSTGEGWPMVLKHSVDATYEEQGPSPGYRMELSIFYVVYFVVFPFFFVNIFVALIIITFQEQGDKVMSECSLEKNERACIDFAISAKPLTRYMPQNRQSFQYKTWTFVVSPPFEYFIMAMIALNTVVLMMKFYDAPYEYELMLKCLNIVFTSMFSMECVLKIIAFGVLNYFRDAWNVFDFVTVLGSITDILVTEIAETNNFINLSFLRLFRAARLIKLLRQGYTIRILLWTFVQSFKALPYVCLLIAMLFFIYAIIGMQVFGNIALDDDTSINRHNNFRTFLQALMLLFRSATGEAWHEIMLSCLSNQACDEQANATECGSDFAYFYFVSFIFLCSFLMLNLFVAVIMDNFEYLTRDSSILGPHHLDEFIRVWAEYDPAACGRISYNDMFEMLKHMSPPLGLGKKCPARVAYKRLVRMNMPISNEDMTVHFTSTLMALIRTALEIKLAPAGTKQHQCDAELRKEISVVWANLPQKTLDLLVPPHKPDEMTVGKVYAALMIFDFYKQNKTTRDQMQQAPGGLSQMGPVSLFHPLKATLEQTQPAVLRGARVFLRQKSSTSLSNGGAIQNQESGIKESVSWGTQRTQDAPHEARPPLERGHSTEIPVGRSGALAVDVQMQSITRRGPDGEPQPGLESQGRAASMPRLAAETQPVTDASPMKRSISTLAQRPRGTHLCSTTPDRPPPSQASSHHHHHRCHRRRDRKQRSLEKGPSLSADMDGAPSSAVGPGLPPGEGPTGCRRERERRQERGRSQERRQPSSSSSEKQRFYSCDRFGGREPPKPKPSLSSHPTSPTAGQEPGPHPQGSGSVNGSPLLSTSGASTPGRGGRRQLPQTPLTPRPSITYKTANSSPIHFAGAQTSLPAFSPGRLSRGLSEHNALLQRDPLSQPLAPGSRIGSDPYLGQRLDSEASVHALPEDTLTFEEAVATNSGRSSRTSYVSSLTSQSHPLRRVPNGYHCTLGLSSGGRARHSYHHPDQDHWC
Test: Inhibition of Cav2.2 in human SH-SY5Y cells assessed as decrease in KCl-induced calcium mobilization measured after 600 secs post compound addition and 300 secs post KCl addition in presence of CaV1 blocker nifedipine by calcium 4 dye-based FLIPR assay
pIC50: −log10 of the molar value.
Response key: class 1 means pIC50 >= 4; class 0 means pIC50 < 4.

{"Compound structure string": "NCCCOc1ccc(CNc2nc3ccc(Oc4ccccc4)cc3s2)cc1", "Assigned label": "class 0"}

Incoming: Is pIC50 at least 4? Consider CN(Cc1ccc(OCCCN)cc1)c1nc2ccc(Oc3ccc(C(F)(F)F)cc3)cc2s1
Outgoing: class 0

Incoming: Thanks! And N#Cc1ccc(Oc2ccc3nc(NCc4ccc(OCCCNC(=N)N)cc4)sc3c2)cc1 ?
Outgoing: class 0

Incoming: Then this compound: CN(C)CCCOc1ccc(CNc2nc3ccc(Oc4cccc(C(F)(F)F)c4)cc3s2)cc1
Outgoing: class 1

Incoming: // repeat for CN(Cc1ccc(OCCCNC(=N)N)cc1)c1nc2ccc(Oc3ccc(C(F)(F)F)cc3)cc2s1 and report
Outgoing: class 0

Incoming: And CN(Cc1ccc(OCCCN)cc1)c1nc2ccc(Oc3ccc(C#N)cc3)cc2s1 ?
Outgoing: class 1

Incoming: What about this compound? CN(Cc1ccc(OCCCN)cc1)c1nc2ccc(Oc3ccccc3)cc2s1
Outgoing: class 1

Incoming: Subsequent entry: N=C(N)NCCCOc1ccc(CNc2nc3ccc(Oc4ccc(C(F)(F)F)cc4)cc3s2)cc1.O=C(O)C(F)(F)F
Outgoing: class 0

* * *

Exercise: state measured remaining at 24 h, 120 µM for each of the compounds provided.
Experiment: Metabolic stability in rat plasma assessed as parent compound remaining at 120 uM after 24 hrs by HPLC analysis relative to control
Type: ADME, cell-free
Conditions: read-out: Stability
Give bare numbers, in %.

{"Compound structure string": "N=C(N)NCCCOc1ccc(CNc2nc3ccc(Oc4ccc(C(F)(F)F)cc4)cc3s2)cc1.O=C(O)C(F)(F)F", "Experimental value": 91}
{"Compound structure string": "NCCCOc1ccc(CNc2nc3ccc(Oc4ccc(F)cc4)cc3s2)cc1.O=C(O)C(F)(F)F", "Experimental value": 75}
{"Compound structure string": "CN(Cc1ccc(OCCCNC(=N)N)cc1)c1nc2ccc(Oc3cccc(C(F)(F)F)c3)cc2s1.O=C(O)C(F)(F)F", "Experimental value": 95}

Incoming: Using the record for CN(Cc1ccc(OCCCN)cc1)c1nc2ccc(Oc3cccc(C(F)(F)F)c3)cc2s1.O=C(O)C(F)(F)F , report its remaining at 24 h, 120 µM.
Outgoing: 100

* * *

Provide the reported pIC50 of each item.
Target: Voltage-dependent T-type calcium channel subunit alpha-1H (Homo sapiens, UniProt O95180)
Sequence (O95180 whole entry): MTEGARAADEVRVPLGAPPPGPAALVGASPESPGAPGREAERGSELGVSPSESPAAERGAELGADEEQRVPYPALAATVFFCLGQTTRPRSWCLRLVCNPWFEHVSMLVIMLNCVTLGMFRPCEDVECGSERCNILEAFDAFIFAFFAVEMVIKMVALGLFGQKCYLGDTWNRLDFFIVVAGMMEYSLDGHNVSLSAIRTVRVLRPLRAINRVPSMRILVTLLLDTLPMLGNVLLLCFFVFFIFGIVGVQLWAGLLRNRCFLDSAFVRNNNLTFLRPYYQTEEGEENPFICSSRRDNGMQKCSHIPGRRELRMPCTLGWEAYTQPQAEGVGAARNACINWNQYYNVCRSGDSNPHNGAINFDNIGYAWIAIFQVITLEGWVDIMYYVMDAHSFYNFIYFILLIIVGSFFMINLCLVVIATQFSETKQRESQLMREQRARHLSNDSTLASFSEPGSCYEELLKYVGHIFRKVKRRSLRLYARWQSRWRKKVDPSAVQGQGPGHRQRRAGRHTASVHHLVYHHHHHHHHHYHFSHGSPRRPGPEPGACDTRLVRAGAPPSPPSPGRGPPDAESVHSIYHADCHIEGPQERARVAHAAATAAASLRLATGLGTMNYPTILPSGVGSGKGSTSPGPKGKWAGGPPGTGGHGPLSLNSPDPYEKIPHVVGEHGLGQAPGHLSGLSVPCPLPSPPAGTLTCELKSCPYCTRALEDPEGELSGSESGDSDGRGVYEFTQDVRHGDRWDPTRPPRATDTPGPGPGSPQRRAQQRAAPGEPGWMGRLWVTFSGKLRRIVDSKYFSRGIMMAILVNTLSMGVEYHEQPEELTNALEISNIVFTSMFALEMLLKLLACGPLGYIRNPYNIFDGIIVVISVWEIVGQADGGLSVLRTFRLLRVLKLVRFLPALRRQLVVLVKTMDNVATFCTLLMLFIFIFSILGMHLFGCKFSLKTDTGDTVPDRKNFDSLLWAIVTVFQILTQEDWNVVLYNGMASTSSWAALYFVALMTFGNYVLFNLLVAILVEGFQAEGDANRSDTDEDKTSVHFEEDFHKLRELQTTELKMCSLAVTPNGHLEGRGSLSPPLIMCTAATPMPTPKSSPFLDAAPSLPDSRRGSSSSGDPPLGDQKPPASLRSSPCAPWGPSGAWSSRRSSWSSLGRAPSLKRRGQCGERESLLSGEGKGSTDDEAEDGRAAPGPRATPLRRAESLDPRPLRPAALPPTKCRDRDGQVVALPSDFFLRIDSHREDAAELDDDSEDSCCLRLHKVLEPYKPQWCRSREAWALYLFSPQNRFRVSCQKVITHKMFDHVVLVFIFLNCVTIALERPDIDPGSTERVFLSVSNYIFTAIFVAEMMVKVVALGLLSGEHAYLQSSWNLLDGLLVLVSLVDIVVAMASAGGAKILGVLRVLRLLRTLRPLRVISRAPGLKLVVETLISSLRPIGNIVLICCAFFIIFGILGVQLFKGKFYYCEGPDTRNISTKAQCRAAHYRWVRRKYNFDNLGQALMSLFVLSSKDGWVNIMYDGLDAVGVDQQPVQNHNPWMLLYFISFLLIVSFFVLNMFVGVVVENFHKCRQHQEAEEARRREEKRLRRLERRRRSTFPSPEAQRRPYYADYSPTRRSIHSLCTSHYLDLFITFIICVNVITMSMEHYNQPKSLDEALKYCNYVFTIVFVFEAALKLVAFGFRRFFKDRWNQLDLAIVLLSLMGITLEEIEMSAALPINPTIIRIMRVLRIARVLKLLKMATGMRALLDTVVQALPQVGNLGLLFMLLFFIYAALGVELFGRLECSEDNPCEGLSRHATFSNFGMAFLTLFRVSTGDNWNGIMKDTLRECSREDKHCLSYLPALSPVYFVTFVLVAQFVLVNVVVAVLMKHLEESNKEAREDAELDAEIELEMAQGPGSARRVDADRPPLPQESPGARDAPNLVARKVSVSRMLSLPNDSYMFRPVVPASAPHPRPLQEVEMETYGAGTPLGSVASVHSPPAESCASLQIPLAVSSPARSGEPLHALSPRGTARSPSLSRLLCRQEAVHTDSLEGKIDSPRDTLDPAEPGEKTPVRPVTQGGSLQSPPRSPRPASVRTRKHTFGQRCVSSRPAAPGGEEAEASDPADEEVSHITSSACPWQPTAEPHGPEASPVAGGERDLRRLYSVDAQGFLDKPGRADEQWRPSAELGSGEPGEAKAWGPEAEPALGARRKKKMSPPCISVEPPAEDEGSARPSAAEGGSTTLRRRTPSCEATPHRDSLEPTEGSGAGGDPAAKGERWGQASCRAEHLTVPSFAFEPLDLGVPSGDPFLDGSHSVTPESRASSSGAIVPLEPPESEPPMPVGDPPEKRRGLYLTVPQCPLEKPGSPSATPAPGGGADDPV
Experiment: Inhibition of recombinant human Cav3.2-alpha1 expressed in HEK293T cells assessed as decrease in KCl-induced calcium mobilization measured after 600 secs post compound addition and 300 secs post KCl addition by calcium 4 dye-based FLIPR assay
One number for each entry, as −log10 of the molar value.

Hi there! I need pIC50 for each item below, if you can.
1. CN(Cc1ccc(OCCCN)cc1)c1nc2ccc(Oc3ccc(C#N)cc3)cc2s1
2. N=C(N)NCCCOc1ccc(CNc2nc3ccc(Oc4ccc(O)cc4)cc3s2)cc1
3. CN(C)CCCOc1ccc(CNc2nc3ccc(Oc4cccc(C(F)(F)F)c4)cc3s2)cc1
4. N=C(N)NCCCOc1ccc(CNc2nc3ccc(Oc4ccc(C(F)(F)F)cc4)cc3s2)cc1.O=C(O)C(F)(F)F
5. N#Cc1ccc(Oc2ccc3nc(NCc4ccc(OCCCN)cc4)sc3c2)cc1
6. N=C(N)NCCCOc1ccc(CNc2nc3ccc(Oc4cccc(C(F)(F)F)c4)cc3s2)cc1
7. NCCCOc1ccc(CNc2nc3ccc(Oc4cccc(C(F)(F)F)c4)cc3s2)cc1

Outgoing:
3.48
3.50
3.96
3.71
3.96
3.57
3.77

Take each entry in turn and give its pIC50.
1. NCCCOc1ccc(CNc2nc3ccc(Oc4ccc(C(F)(F)F)cc4)cc3s2)cc1
2. CN(Cc1ccc(OCCCN)cc1)c1nc2ccc(Oc3cccc(C(F)(F)F)c3)cc2s1.O=C(O)C(F)(F)F
3. O=C(CC(c1ccccc1)c1ccccc1)N1CCN(C(c2ccccc2)c2ccccc2)CC1

Outgoing:
3.95
3.62
4.35

Could you tell me pIC50 for each of these compounds? They are listed below.
1. CN(C)CCCOc1ccc(CN(C)c2nc3ccc(Oc4ccc(C(F)(F)F)cc4)cc3s2)cc1
2. CN(C)CCCOc1ccc(CNc2nc3ccc(Oc4ccc(C#N)cc4)cc3s2)cc1
3. CN(Cc1ccc(OCCCN)cc1)c1nc2ccc(Oc3ccc(F)cc3)cc2s1
4. N#Cc1ccc(Oc2ccc3nc(NCc4ccc(OCCCNC(=N)N)cc4)sc3c2)cc1
5. NCCCOc1ccc(CNc2nc3ccc(Oc4ccc(O)cc4)cc3s2)cc1
6. NCCCOc1ccc(CNc2nc3ccc(Oc4ccc(F)cc4)cc3s2)cc1.O=C(O)C(F)(F)F

Outgoing:
4.27
4.39
3.31
3.49
3.52
3.16

Would you be so kind as to report pIC50 for each listed record?
1. CN(Cc1ccc(OCCCNC(=N)N)cc1)c1nc2ccc(Oc3ccc(C(F)(F)F)cc3)cc2s1
2. CN(Cc1ccc(OCCCNC(=N)N)cc1)c1nc2ccc(Oc3cccc(C(F)(F)F)c3)cc2s1.O=C(O)C(F)(F)F
3. CN(Cc1ccc(OCCCNC(=N)N)cc1)c1nc2ccc(Oc3ccc(O)cc3)cc2s1
4. CN(Cc1ccc(OCCCNC(=N)N)cc1)c1nc2ccc(Oc3ccccc3)cc2s1

Outgoing:
3.67
3.11
3.48
3.30

For the 5 compounds below, give their pIC50 values.
1. CN(Cc1ccc(OCCCN)cc1)c1nc2ccc(Oc3ccc(C(F)(F)F)cc3)cc2s1
2. CN(Cc1ccc(OCCCNC(=N)N)cc1)c1nc2ccc(Oc3ccc(F)cc3)cc2s1
3. CN(C)CCCOc1ccc(CN(C)c2nc3ccc(Oc4ccc(C#N)cc4)cc3s2)cc1
4. N=C(N)NCCCOc1ccc(CNc2nc3ccc(Oc4ccc(F)cc4)cc3s2)cc1
5. NC(N)=NCCCOc1ccc(CNc2nc3ccc(Oc4ccccc4)cc3s2)cc1

Outgoing:
[3.61, 3.28, 4.19, 3.54, 3.78]

Record pIC50 for all entries; do not skip any.
1. CN(Cc1ccc(OCCCN)cc1)c1nc2ccc(Oc3ccccc3)cc2s1
2. CN(Cc1ccc(OCCCNC(=N)N)cc1)c1nc2ccc(Oc3ccc(C#N)cc3)cc2s1
3. CN(Cc1ccc(OCCCN)cc1)c1nc2ccc(Oc3ccc(O)cc3)cc2s1

Outgoing:
1. 4.02
2. 3.82
3. 3.78

* * *

Provide the reported pIC50 of each item.
Target: Voltage-dependent N-type calcium channel subunit alpha-1B (Homo sapiens)
Experiment: Inhibition of Cav2.2 in human SH-SY5Y cells assessed as decrease in KCl-induced calcium mobilization measured after 600 secs post compound addition and 300 secs post KCl addition in presence of CaV1 blocker nifedipine by calcium 4 dye-based FLIPR assay
Numbers only, as −log10 of the molar value.

// each listed compound needs a value for pIC50
1. O=C(CC(c1ccccc1)c1ccccc1)N1CCN(C(c2ccccc2)c2ccccc2)CC1
2. CN(Cc1ccc(OCCCNC(=N)N)cc1)c1nc2ccc(Oc3ccc(O)cc3)cc2s1
3. CC(C)[C@H]1c2ccc(F)cc2CC[C@@]1(CCN(C)CCCc1nc2ccccc2[nH]1)OC(=O)C1CC1
4. NCCCOc1ccc(CNc2nc3ccc(Oc4ccc(F)cc4)cc3s2)cc1.O=C(O)C(F)(F)F
5. NCCCOc1ccc(CNc2nc3ccc(Oc4ccc(O)cc4)cc3s2)cc1

Outgoing:
1. 4.41
2. 3.36
3. 5.15
4. 3.97
5. 3.69

I need pIC50 for every entry listed below, if you could help.
1. CN(C)CCCOc1ccc(CN(C)c2nc3ccc(Oc4ccc(C#N)cc4)cc3s2)cc1
2. CN(Cc1ccc(OCCCN)cc1)c1nc2ccc(Oc3cccc(C(F)(F)F)c3)cc2s1.O=C(O)C(F)(F)F
3. CN(C)CCCOc1ccc(CN(C)c2nc3ccc(Oc4ccc(C(F)(F)F)cc4)cc3s2)cc1
4. NCCCOc1ccc(CNc2nc3ccc(Oc4ccc(C(F)(F)F)cc4)cc3s2)cc1

Outgoing:
1: 4.16; 2: 4.11; 3: 4.34; 4: 4.23
